Tested on: IFNγ-Induced NO Production in RAW 264.7 cells
Protocol Summary: Nitric Oxide Suppression Assay (suppression of IFNγ-induced NO production)
Format: cell-based
Conditions: RAW264.7; RAW 264.7 mouse macrophage cells, 20 ng/mL interferon gamma, Griess detection; single curve fit to mean data of n=2-3
Description: RAW 264.7, a mouse macrophage cell line, was obtained from American Type Culture Collection (Manassas Va.) and maintained in the log phase of growth in Dulbecco's Modified Eagle's Medium (DMEM), 10% heat inactivated fetal calf serum and 100 units/mL antibiotic-antimycotic (AA). Cells were cultured and maintained in a humidified incubator at 37° C. under 5% CO2 and 95% air. Cells were sub-cultured every 3 days by scraping and were not used beyond passage 20. […]
Result Type: pIC50
// field semantics: pIC50 = negative decimal log of concentration (mol/L)

Please review the following examples before continuing.
{"Compound": "CC1(C)C(=O)C(C#N)=C[C@]2(C)C3=CC(=O)[C@@H]4[C@@H]5C[C@@](C)(C(=O)NCc6ccco6)CC[C@]5(C)CC[C@@]4(C)[C@]3(C)CC[C@@H]12", "pIC50": 7.86}
{"Compound": "Cc1ccccc1CNC(=O)[C@@]1(C)CC[C@]2(C)CC[C@@]3(C)[C@]4(C)CC[C@H]5C(C)(C)C(=O)C(C#N)=C[C@]5(C)C4=CC(=O)[C@]3(O)[C@@H]2C1", "pIC50": 6.85}
{"Compound": "CC1(C)C(=O)C(C#N)=C[C@]2(C)C3=CC(=O)[C@]4(O)[C@@H]5C[C@@](C)(C(=O)NC6CCOCC6)CC[C@]5(C)CC[C@@]4(C)[C@]3(C)CC[C@@H]12", "pIC50": 7.77}
{"Compound": "CCCN(C)C(=O)[C@@]1(C)CC[C@]2(C)CC[C@@]3(C)[C@]4(C)CC[C@H]5C(C)(C)C(=O)C(C#N)=C[C@]5(C)C4=CC(=O)[C@]3(O)[C@@H]2C1", "pIC50": 7.45}
{"Compound": "CC1(C)C(=O)C(C#N)=C[C@]2(C)C3=CC(=O)[C@@H]4[C@@H]5C[C@@](C)(C(=O)NCc6cnco6)CC[C@]5(C)CC[C@@]4(C)[C@]3(C)CC[C@@H]12", "pIC50": 8.24}

Recorded pIC50 of CCCNC(=O)[C@@]1(C)CC[C@]2(C)CC[C@@]3(C)[C@]4(C)CC[C@H]5C(C)(C)C(=O)C(C#N)=C[C@]5(C)C4=CC(=O)[C@]3(O)[C@@H]2C1 , please.
8.11

One more compound: COC(=O)[C@]12CCC(C)(C)C[C@H]1[C@H]1C(=O)C=C3[C@@]4(C)C=C(C#N)C(=O)C(C)(C)[C@@H]4CC[C@@]3(C)[C@]1(C)CC2 [bardoxolone methyl, reference compound]
7.54

One more compound: CC1(C)C(=O)C(C#N)=C[C@]2(C)C3=CC(=O)[C@]4(O)[C@@H]5C[C@@](C)(C(=O)NCc6ccccc6)CC[C@]5(C)CC[C@@]4(C)[C@]3(C)CC[C@@H]12
7.57

One more compound: COCCN(C)C(=O)[C@@]1(C)CC[C@]2(C)CC[C@@]3(C)[C@]4(C)CC[C@H]5C(C)(C)C(=O)C(C#N)=C[C@]5(C)C4=CC(=O)[C@]3(O)[C@@H]2C1
7.76

One more compound: CC(C)(C)CNC(=O)[C@@]1(C)CC[C@]2(C)CC[C@@]3(C)[C@]4(C)CC[C@H]5C(C)(C)C(=O)C(C#N)=C[C@]5(C)C4=CC(=O)[C@]3(O)[C@@H]2C1
7.65
